Molecular target: human FPR1 (Homo sapiens (Human))
Assay: FPR1 cyclic adenosine monophosphate (cAMP) assay
Format: cell-based
Conditions: CHO cells overexpressing human FPR1; forskolin 10 μM, IBMX 200 μM; inhibition of cAMP production, HTRF; read-out: hFPR1 cAMP EC50
readout-name: EC50 (nM)

// worked examples, EC50 included
[[record]]
compound = "COCCn1cccc(N2C[C@@H](c3c(F)cc(OC)cc3F)[C@H](NC(=O)NC3CCc4cc(Cl)ccc4C3)C2=O)c1=O (stereo partly drawn) [Example 20]"
assay_value = 38.9

[[record]]
compound = "COCCn1cccc(N2C(=O)[C@@H](NC(=O)NC3CCc4cc(OC)ccc4C3(C)C)[C@H](c3c(F)cc(OC)cc3F)[C@@H]2C)c1=O (stereo partly drawn) [Example 62]"
assay_value = 23

[[record]]
compound = "COCCn1cccc(N2C[C@@H](c3c(F)cc(OC)cc3F)[C@H](NC(=O)NC3CCc4cc(OC)ccc4C3(C)C)C2=O)c1=O (stereo partly drawn) [Example 54]"
assay_value = 8.8

[[record]]
compound = "CCn1cccc(N2C[C@@H](c3c(F)cc(OC)cc3F)[C@H](NC(=O)NC3CCc4cc(OC)ccc4C3(C)C)C2=O)c1=O (stereo partly drawn) [Example 52]"
assay_value = 593

[[record]]
compound = "COc1cc(F)c([C@@H]2CN(c3nccc(NCC(C)(C)O)c3C(F)(F)F)C(=O)[C@H]2NC(=O)N[C@H]2CC[C@H](C(F)F)CC2)c(F)c1"
assay_value = 5000


A: COc1cc(F)c([C@@H]2CN(c3nccc(N4CCOCC4)c3C(F)(F)F)C(=O)[C@H]2NC(=O)N[C@H]2CC[C@H](C(F)F)CC2)c(F)c1
B: COCCn1cccc(N2C[C@@H](c3c(F)cc(OC)cc3F)[C@H](NC(=O)NC3CCc4cc(OC)ccc4C3(C)C)C2=O)c1=O (stereo partly drawn) [Example 45]
I'm curious whether A or B has the smaller EC50 number. Which is it? To answer, give the label that identifies your chosen option.
B

---

Molecular target: human FPR1 (Homo sapiens (Human), UniProt P21462)
Sequence (P21462 whole entry): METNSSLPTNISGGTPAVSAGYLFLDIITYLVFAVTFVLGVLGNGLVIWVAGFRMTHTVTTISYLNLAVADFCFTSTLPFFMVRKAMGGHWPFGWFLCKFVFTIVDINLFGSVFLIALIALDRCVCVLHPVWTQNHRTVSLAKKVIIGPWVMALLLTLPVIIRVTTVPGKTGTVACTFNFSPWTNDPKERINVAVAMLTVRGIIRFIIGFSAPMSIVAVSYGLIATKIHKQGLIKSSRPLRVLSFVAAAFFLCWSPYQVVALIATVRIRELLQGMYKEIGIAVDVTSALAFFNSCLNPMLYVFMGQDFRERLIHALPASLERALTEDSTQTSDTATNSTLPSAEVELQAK
Assay: FPR1 cyclic adenosine monophosphate (cAMP) assay
Type: cell-based
Conditions: CHO cells overexpressing human FPR1; forskolin 10 μM, IBMX 200 μM; inhibition of cAMP production, HTRF; read-out: hFPR1 cAMP EC50
pEC50: −log10 of the molar value.
readout-name: pEC50

[[record]]
compound = "COc1cc(F)c([C@@H]2CN(c3cccn(CCO)c3=O)C(=O)[C@H]2NC(=O)N[C@H]2CC[C@H](C(F)F)CC2)c(F)c1 [Example 65]"
readout_name = "pEC50"
assay_value = 5.30


I: COc1cc(F)c([C@@H]2CN(c3nccc(NCC4CCCO4)c3C(F)(F)F)C(=O)[C@H]2NC(=O)N[C@H]2CC[C@H](C(F)F)CC2)c(F)c1 (stereo partly shown) [Example 93]
II: COc1cc(F)c([C@@H]2CN(c3cccn(CCO)c3=O)C(=O)[C@H]2NC(=O)NC2CCc3cc(OC)ccc3C2)c(F)c1 (stereo partly shown) [Example 21]
III: COc1cc(F)c([C@@H]2CN(c3nccc(N4CCOCC4)c3C(F)(F)F)C(=O)C2NC(=O)N[C@H]2CC[C@H](C(F)F)CC2)c(F)c1 (stereo partly shown) [Example 1]
Order the records, beginning with the lowest pEC50 and ending with the highest. Put the labels in the order asked and list them.
III, I, II

---

Biological target: UniProt P25090
Assay: FPR2 cyclic adenosine monophosphate (cAMP) assay
Assay type: cell-based
Settings: CHO cells overexpressing human FPR2; forskolin 5 μM, IBMX 200 μM; inhibition of cAMP production, HTRF; read-out: hFPR2 cAMP2 EC50
pEC50: −log10 of the molar value.
readout-name: pEC50

// worked examples, pEC50 included
[[record]]
compound = "COCCn1cccc(N2C[C@@H](c3c(F)cc(OC)cc3F)[C@H](NC(=O)NC3CCc4cc(OC)ccc4C3(C)C)C2=O)c1=O (stereo partly drawn) [Example 45]"
assay_value = 8.17

[[record]]
compound = "COCCNc1ccnc(N2C[C@@H](c3c(F)cc(OC)cc3F)[C@H](NC(=O)N[C@H]3CC[C@H](C(F)F)CC3)C2=O)c1C(F)(F)F [Example 69]"
assay_value = 8.28

[[record]]
compound = "COc1cc(F)c([C@@H]2CN(c3cccn(CC(O)C(F)(F)F)c3=O)C(=O)[C@H]2NC(=O)NC2CCc3cc(OC)ccc3C2)c(F)c1 (single isomer, unassigned) [Example 78]"
assay_value = 7.30

[[record]]
compound = "COc1cc(F)c([C@@H]2CN(c3cccn(CC(O)C(F)(F)F)c3=O)C(=O)[C@H]2NC(=O)NC2CCc3cc(OC)ccc3C2)c(F)c1 (stereo partly drawn) [Example 79]"
assay_value = 8.14

[[record]]
compound = "COc1cc(F)c([C@@H]2CN(c3nccc(NCC4CCOC4)c3C(F)(F)F)C(=O)[C@H]2NC(=O)N[C@H]2CC[C@H](C(F)F)CC2)c(F)c1 (single isomer, unassigned) [Example 73]"
assay_value = 6.49

[[record]]
compound = "COc1cc(F)c([C@@H]2CN(c3nccc(N4CCN(C)CC4)c3C(F)(F)F)C(=O)[C@H]2NC(=O)N[C@H]2CC[C@H](C(F)F)CC2)c(F)c1 [Example 30]"
assay_value = 8.44

[[record]]
compound = "COc1cc(F)c([C@@H]2CN(c3ncccc3C(F)(F)F)C(=O)[C@H]2NC(=O)NC2COc3cc(OC)ccc3C2)c(F)c1 (stereo partly drawn) [Example 33]"
assay_value = 8.40

[[record]]
compound = "COCCn1nccc(N2C[C@@H](c3c(F)cc(OC)cc3F)[C@H](NC(=O)NC3CCc4cc(OC)ccc4C3)C2=O)c1=O (stereo partly drawn) [Example 85]"
assay_value = 8.36


A: COCCn1cccc(N2C[C@@H](c3c(F)cc(OC)cc3F)[C@H](NC(=O)NC3CCc4cc(Cl)ccc4C3)C2=O)c1=O (stereo partly drawn) [Example 17]
B: COc1cc(F)c([C@H]2[C@H](NC(=O)NC3CCc4cc(OC)ccc4C3(C)C)C(=O)N(c3ncccc3C(F)(F)F)[C@H]2C)c(F)c1 (stereo partly drawn) [Example 59]
I'm curious whether A or B has the smaller pEC50 number. Which is it? To answer, give the label that identifies your chosen option.
B

---

Biological target: UniProt P25090
Experiment: FPR2 cyclic adenosine monophosphate (cAMP) assay
Type: cell-based
Conditions: CHO cells overexpressing human FPR2; forskolin 5 μM, IBMX 200 μM; inhibition of cAMP production, HTRF; read-out: hFPR2 cAMP2 EC50
readout-name: EC50 (nM)

// worked examples, EC50 included
[[record]]
compound = "COc1cc(F)c([C@@H]2CN(c3cccn(CCO)c3=O)C(=O)[C@H]2NC(=O)NC2CCc3cc(Cl)ccc3C2)c(F)c1 (stereo partly shown) [Example 19]"
units_text = "nM"
assay_value = 1.9

[[record]]
compound = "COc1cc(F)c([C@@H]2CN(c3cccn(CCO)c3=O)C(=O)[C@H]2NC(=O)NC2CCc3cc(OC)ccc3C2)c(F)c1 (stereo partly shown)"
units_text = "nM"
assay_value = 1.5


I: CCn1cccc(N2C[C@@H](c3ccc(OC)cc3)[C@H](NC(=O)NC3CCc4cc(OC)ccc4C3)C2=O)c1=O (stereo partly shown) [Example 12]
II: COc1cc(F)c([C@@H]2CN(c3cccn(C(F)F)c3=O)C(=O)[C@H]2NC(=O)NC2CCc3cc(OC)ccc3C2)c(F)c1 (single isomer, unassigned) [Example 95]
Given I and II , report the one with the higher recorded EC50. To answer, give the label that identifies your chosen option.
II
(II: 4 nM, I: 0.9 nM)

---

Biological target: human FPR2 (Homo sapiens (Human), UniProt P25090)
Sequence (P25090 whole entry): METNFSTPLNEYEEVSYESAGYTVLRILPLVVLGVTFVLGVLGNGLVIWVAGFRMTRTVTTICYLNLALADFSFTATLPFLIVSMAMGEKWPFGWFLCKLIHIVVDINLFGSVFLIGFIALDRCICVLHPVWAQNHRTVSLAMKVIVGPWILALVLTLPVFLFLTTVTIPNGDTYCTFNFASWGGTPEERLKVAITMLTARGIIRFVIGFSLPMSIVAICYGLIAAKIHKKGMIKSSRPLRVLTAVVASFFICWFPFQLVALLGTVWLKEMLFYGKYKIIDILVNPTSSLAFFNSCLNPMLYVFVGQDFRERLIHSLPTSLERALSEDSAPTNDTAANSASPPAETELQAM
Experiment: FPR2 cyclic adenosine monophosphate (cAMP) assay
Assay type: cell-based
Conditions: CHO cells overexpressing human FPR2; forskolin 5 μM, IBMX 200 μM; inhibition of cAMP production, HTRF; read-out: hFPR2 cAMP2 EC50
pEC50: −log10 of the molar value.
readout-name: pEC50

[[record]]
compound = "COc1cc(F)c([C@@H]2CN(c3nccc(N4CCOCC4)c3C(F)(F)F)C(=O)[C@H]2NC(=O)N[C@H]2CC[C@H](C(F)F)CC2)c(F)c1"
tested_on = "human FPR2 (Homo sapiens (Human), UniProt P25090)"
readout_name = "pEC50"
assay_value = 6.17

[[record]]
compound = "COCC(CO)n1cccc(N2C[C@@H](c3c(F)cc(OC)cc3F)[C@H](NC(=O)NC3CCc4cc(OC)ccc4C3)C2=O)c1=O (single isomer, unassigned) [Example 2]"
tested_on = "human FPR2 (Homo sapiens (Human), UniProt P25090)"
readout_name = "pEC50"
assay_value = 7.70

[[record]]
compound = "COc1cc(F)c([C@@H]2CN(c3c(C)ccn(CCO)c3=O)C(=O)[C@H]2NC(=O)NC2CCc3cc(OC)ccc3C2)c(F)c1 (single isomer, unassigned) [Example 83]"
tested_on = "human FPR2 (Homo sapiens (Human), UniProt P25090)"
readout_name = "pEC50"
assay_value = 9.00

[[record]]
compound = "COc1ccc([C@H]2C[C@@H]2NC(=O)N[C@@H]2C(=O)N(c3ncccc3C(F)(F)F)C[C@H]2c2c(F)cc(OC)cc2F)cc1 [Example 35]"
tested_on = "human FPR2 (Homo sapiens (Human), UniProt P25090)"
readout_name = "pEC50"
assay_value = 8.35

[[record]]
compound = "COc1cc(F)c([C@@H]2CN(c3ncccc3C(F)(F)F)C(=O)[C@H]2NC(=O)NC2CCc3cc(Cl)ccc3C2)c(F)c1 (stereo partly drawn) [Example 43]"
tested_on = "human FPR2 (Homo sapiens (Human), UniProt P25090)"
readout_name = "pEC50"
assay_value = 8.22


A: CNC(=O)CNc1ccnc(N2C[C@@H](c3c(F)cc(OC)cc3F)[C@H](NC(=O)N[C@H]3CC[C@H](C(F)F)CC3)C2=O)c1C(F)(F)F
B: COc1cc(F)c([C@@H]2CN(c3cccn(CCO)c3=O)C(=O)[C@H]2NC(=O)NC2CCc3cc(Cl)ccc3C2)c(F)c1 (stereo partly drawn) [Example 14]
C: COc1cc(F)c([C@H]2[C@H](NC(=O)N[C@H]3CC[C@H](C(F)F)CC3)C(=O)N(c3cccn(CCO)c3=O)[C@H]2C)c(F)c1
D: COc1cc(F)c([C@@H]2CN(c3nccc(N4CCN5CCCC5C4)c3C(F)(F)F)C(=O)[C@H]2NC(=O)N[C@H]2CC[C@H](C(F)F)CC2)c(F)c1 (single isomer, unassigned) [Example 102]
Order the records, beginning with the lowest pEC50 and ending with the highest. Put the labels in the order asked and list them.
C, A, D, B
(C: 7.27, A: 7.60, D: 8.10, B: 8.85)

I: COCCn1cccc(N2C[C@@H](c3c(F)cc(OC)cc3F)[C@H](NC(=O)N[C@H]3CC[C@H](C(F)F)CC3)C2=O)c1=O
II: COc1cc(F)c([C@@H]2CN(c3ncccc3C(F)(F)F)C(=O)[C@H]2NC(=O)NC2COc3cc(OC)ccc3C2)c(F)c1 (stereo partly drawn) [Example 28]
III: COc1cc(F)c([C@@H]2CN(c3nccc(NC4CCOC4)c3C(F)(F)F)C(=O)[C@H]2NC(=O)N[C@H]2CC[C@H](C(F)F)CC2)c(F)c1 (single isomer, unassigned) [Example 100]
Order the records by pEC50, with each subsequent value no larger than the one before. Put the labels in the order asked and list them.
II, III, I
(II: 8.48, III: 8.05, I: 7.48)
